Biological target: T1, human VEGF (hVEGF) (human, UniProt P15692 181-395)
T1 construct: also called VEGF-A
T1 sequence: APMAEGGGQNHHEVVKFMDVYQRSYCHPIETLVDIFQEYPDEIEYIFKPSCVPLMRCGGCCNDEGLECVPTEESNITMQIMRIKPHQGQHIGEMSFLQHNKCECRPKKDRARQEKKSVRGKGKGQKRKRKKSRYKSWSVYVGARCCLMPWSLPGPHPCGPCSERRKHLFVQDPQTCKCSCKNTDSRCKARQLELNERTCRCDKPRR
Test: BIACORE SPR on immobilised hVEGF; label beside the mutation on the structure of the VEGF-bound G6 Fab (PDB 2FJG)
Measured fold change in binding affinity (Kd) compared to G6.31 by item
API: value field is a number in x; no unit string.

# binder, observedResult
measured = [
    ("G6.31 HC-T57E (Fab, name in Kabat numbering, V domains shown, Fab) VH: EVQLVESGGGLVQPGGSLRLSCAASGFTISDYWIHWVRQAPGKGLEWVAGITPAGGYEYYADSVKGRFTISADTSKNTAYLQMNSLRAEDTAVYYCARFVFFLPYAMDYWGQGTLVTVSS VL: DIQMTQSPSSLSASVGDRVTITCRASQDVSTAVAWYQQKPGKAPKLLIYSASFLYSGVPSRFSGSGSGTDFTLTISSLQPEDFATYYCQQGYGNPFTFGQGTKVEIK", 8),
    ("G6.31 HC-Y58R (Fab, name in Kabat numbering, V domains shown, Fab) VH: EVQLVESGGGLVQPGGSLRLSCAASGFTISDYWIHWVRQAPGKGLEWVAGITPAGGYTRYADSVKGRFTISADTSKNTAYLQMNSLRAEDTAVYYCARFVFFLPYAMDYWGQGTLVTVSS VL: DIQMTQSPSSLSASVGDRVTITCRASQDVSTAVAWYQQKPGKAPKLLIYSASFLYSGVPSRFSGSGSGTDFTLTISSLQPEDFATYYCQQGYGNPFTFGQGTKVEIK", 9),
]

[in] Query: fold change in binding affinity (Kd) compared to G6.31; subject: G6.31 HC-A53R (Fab, name in Kabat numbering, V domains shown, Fab) VH: EVQLVESGGGLVQPGGSLRLSCAASGFTISDYWIHWVRQAPGKGLEWVAGITPRGGYTYYADSVKGRFTISADTSKNTAYLQMNSLRAEDTAVYYCARFVFFLPYAMDYWGQGTLVTVSS VL: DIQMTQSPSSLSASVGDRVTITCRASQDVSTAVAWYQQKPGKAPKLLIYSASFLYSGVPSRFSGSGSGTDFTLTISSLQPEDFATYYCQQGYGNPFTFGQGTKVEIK
[out] 4
